Measured MIC on S. aureus Smith ATCC 13709 follows.

# Compound, MIC
rows = [
    ("CC[C@H]1OC(=O)[C@H](C)[C@@H](O[C@H]2C[C@@](C)(OC)[C@@H](OC(=O)CCOCCOc3ccc4c(c3)c(=O)c(C(=O)O)cn4C3CC3)[C@H](C)O2)[C@H](C)[C@@H](O[C@@H]2O[C@H](C)C[C@H](N(C)C)[C@H]2O)[C@](C)(O)C[C@@H](C)CN(C)[C@H](C)[C@H]2OC(=O)O[C@@]21C", "≤ 1 µg/mL"),
]

Alright, here's another compound for you.
Req: Give the reported MIC for this compound. CC[C@H]1OC(=O)[C@H](C)[C@@H](OC2C[C@@](C)(OC)[C@@H](OC(=O)CCOCCOc3ccc4c(c3)c(=O)c(C(=O)O)cn4C3CC3)[C@H](C)O2)[C@H](C)[C@@H](OC2O[C@H](C)C[C@H](N(C)C)[C@H]2O)[C@](C)(O)C[C@@H](C)CN(C)[C@H](C)[C@@H](OC)[C@]1(C)O (some centres unmarked)
Resp: ≤ 1 µg/mL
